system: Plasmodium berghei; experiment: Screen against P. berghei liver stage (PbLuc), transformed with Luciferase, at 10uM; type: functional, HepG2; settings: tested at 10 uM
Among all 69,000 compounds or so, about 8,600 (12%) showed an effect of 50% or more. The sample as a whole holds a higher share of strong results than the screen did.
# INHIBITION listing for each entry below
// note: answer is a bare numeric in %

compound: CC(C)Oc1ccc(CNC(=O)CN(C)S(C)(=O)=O)cc1F
assayed_target: Plasmodium berghei
unit_label: %
INHIBITION: 13.375

compound: CCN(CC1CCOC1)C(=O)c1ccc(-c2ccsc2)nc1C (centres undefined)
assayed_target: Plasmodium berghei
unit_label: %
INHIBITION: 19.7

compound: COCCN1C[C@H]2[C@@H](C1)N(C(=O)c1cccc(OC)c1)CC[C@H]2OC
assayed_target: Plasmodium berghei
unit_label: %
INHIBITION: 9.63

compound: O=C1CN(C(=O)C2CCCCC2)CC(O)CN1Cc1ccco1 (centres undefined)
assayed_target: Plasmodium berghei
unit_label: %
INHIBITION: -11.1

compound: C[C@@H]1CN(CC(=O)NCc2ccccn2)C[C@]1(C)O
assayed_target: Plasmodium berghei
unit_label: %
INHIBITION: 19.8

compound: Cn1ccc(C(=O)NCc2cccc(NC(=O)C3CCC3)c2)cc1=O
assayed_target: Plasmodium berghei
unit_label: %
INHIBITION: 61.1

Moving on to the next compound.
Q: What value of measured INHIBITION is listed for Cc1occc1C(=O)N1Cc2nccn2CC(CN2CCOCC2)C1 (centres undefined) ?
Result: 5.89

Origin of values: ChEMBL document CHEMBL4513216
